Target of assay: Fibrinogen-D fragment
Sequence (P02671 130-216 limits assumed): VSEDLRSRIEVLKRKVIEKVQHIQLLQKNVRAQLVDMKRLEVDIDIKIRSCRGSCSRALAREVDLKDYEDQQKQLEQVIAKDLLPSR
Sequence (P02675 164-491 limits assumed, further chain): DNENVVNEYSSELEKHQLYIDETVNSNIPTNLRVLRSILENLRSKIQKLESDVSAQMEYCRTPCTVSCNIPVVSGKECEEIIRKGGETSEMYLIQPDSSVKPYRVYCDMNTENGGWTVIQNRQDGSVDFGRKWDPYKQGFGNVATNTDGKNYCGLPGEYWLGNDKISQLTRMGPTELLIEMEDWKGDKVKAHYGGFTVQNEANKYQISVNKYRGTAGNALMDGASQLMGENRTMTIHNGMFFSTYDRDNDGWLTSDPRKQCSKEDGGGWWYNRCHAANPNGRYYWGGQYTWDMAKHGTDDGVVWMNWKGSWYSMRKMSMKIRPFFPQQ
Sequence (P02679 114-432 limits assumed, further chain): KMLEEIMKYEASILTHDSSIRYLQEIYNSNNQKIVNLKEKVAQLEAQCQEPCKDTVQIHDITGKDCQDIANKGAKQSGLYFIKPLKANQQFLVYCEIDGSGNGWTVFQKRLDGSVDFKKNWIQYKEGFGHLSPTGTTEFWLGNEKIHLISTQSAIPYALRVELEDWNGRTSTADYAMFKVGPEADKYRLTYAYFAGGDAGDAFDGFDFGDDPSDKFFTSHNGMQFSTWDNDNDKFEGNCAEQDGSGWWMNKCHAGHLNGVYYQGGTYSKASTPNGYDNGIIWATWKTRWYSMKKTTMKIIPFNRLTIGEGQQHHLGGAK
Experiment summary: Isothermal titration calorimetry (VP-ITC) of Coa peptides with Fg-D fragment
Design: species or system human
Run parameters: one-binding site model, 10 μM Fg-D, read-out: dissociation constant (KD) to Fg-D
Value kind: Kd

Write down the reported Kd of sCoa-RI: synthetic peptide, first 27 residues of repeat region, Coa 506-532 (ETNAYNVTTHANGQVSYGARPTYKKPS) , test system: Fibrinogen-D fragment. 88 nM
